Recorded IC50 values for a group of compounds are listed next.
molecular target: Amine oxidase [flavin-containing] B (Homo sapiens)
Sequence (P27338 whole entry): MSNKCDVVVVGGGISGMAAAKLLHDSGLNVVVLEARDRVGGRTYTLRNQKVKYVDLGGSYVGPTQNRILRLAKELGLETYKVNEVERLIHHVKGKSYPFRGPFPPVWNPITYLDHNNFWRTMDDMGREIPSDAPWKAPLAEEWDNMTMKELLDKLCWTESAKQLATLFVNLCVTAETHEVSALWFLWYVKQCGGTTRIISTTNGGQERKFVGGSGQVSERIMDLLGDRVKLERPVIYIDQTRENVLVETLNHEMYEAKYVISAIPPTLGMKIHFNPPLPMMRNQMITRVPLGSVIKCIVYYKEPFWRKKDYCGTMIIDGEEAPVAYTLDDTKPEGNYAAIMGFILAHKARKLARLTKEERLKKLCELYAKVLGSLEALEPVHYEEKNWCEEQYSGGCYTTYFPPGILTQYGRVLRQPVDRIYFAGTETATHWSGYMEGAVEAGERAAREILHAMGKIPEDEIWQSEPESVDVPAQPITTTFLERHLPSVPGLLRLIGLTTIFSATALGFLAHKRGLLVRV

Cpd Smiles: CCC(CC)=NNc1nc(-c2cccc([N+](=O)[O-])c2)cs1
System Name: Amine oxidase [flavin-containing] B (Homo sapiens)
Units Label: nM
IC50: 53
//
Cpd Smiles: CC/C(C)=N\Nc1nc(-c2cccc([N+](=O)[O-])c2)cs1
System Name: Amine oxidase [flavin-containing] B (Homo sapiens)
Units Label: nM
IC50: 351
//
Cpd Smiles: C=CCC/C(C)=N\Nc1nc(-c2cccc([N+](=O)[O-])c2)cs1
System Name: Amine oxidase [flavin-containing] B (Homo sapiens)
Units Label: nM
IC50: 101
//
Cpd Smiles: C/C(=N/Nc1nc(-c2cccc([N+](=O)[O-])c2)cs1)C1CC1
System Name: Amine oxidase [flavin-containing] B (Homo sapiens)
Units Label: nM
IC50: 5.3
//
Cpd Smiles: CCC/C(CC)=N\Nc1nc(-c2cccc([N+](=O)[O-])c2)cs1
System Name: Amine oxidase [flavin-containing] B (Homo sapiens)
Units Label: nM
IC50: 189
//
Cpd Smiles: CCC/C(C)=N\Nc1nc(-c2cccc([N+](=O)[O-])c2)cs1
System Name: Amine oxidase [flavin-containing] B (Homo sapiens)
Units Label: nM
IC50: 55
//
Cpd Smiles: CCCC/C(CC)=N\Nc1nc(-c2cccc([N+](=O)[O-])c2)cs1
System Name: Amine oxidase [flavin-containing] B (Homo sapiens)
Units Label: nM
IC50: 182
//
Cpd Smiles: O=[N+]([O-])c1cccc(-c2csc(NN=C3CCCC3)n2)c1
System Name: Amine oxidase [flavin-containing] B (Homo sapiens)
Units Label: nM
IC50: 95
//
Cpd Smiles: C/C(=N/Nc1nc(-c2cccc([N+](=O)[O-])c2)cs1)C1CCCCC1
System Name: Amine oxidase [flavin-containing] B (Homo sapiens)
Units Label: nM
IC50: 7.2
//
Cpd Smiles: C/C(CC(C)C)=N/Nc1nc(-c2cccc([N+](=O)[O-])c2)cs1
System Name: Amine oxidase [flavin-containing] B (Homo sapiens)
Units Label: nM
IC50: 12
